src = ChEMBL document CHEMBL1201862

Provide the reported GI50 of each item.
System: NCI-H522
ASSAY_TEXT: NCI tumour cell line growth inhibition, 48 h
Active and inactive are the calls of the source. Rule as the data show it: active = GI50 up to about 1.1 µM and inactive = higher.

Cn1/c(=N\N=C2\C=C3CCCCC3(C)CC2)sc2ccccc21 (stereo unspecified) = > 100 µM (inactive)

Can you give me GI50 for all of these, one by one?
1. CCC[N+](C)(C)CCCNC(=O)c1c(O)c2ccccc2[nH]c1=O
2. CC(C)C1OC(=O)C=C1Sc1ccccc1 (stereo unspecified)
3. O=C1CS(=O)(=O)C(c2cccc(Oc3ccccc3)c2)N1c1ccccc1 (stereo unspecified)

1: > 100 µM (inactive); 2: > 100 µM (inactive); 3: 18.9 µM (inactive)

Please give GI50, item by item, for the list that follows.
1. NS(=O)(=O)c1cc(Br)c(/N=N\c2ccc(O)c3ncccc23)c(Br)c1
2. CNC(=S)N(C)C(=S)Nn1c(=O)c(C)nn(C)c1=S

16.5 µM (inactive)
> 100 µM (inactive)
